Test system: PXR:RXRa (NR concentration 270 nM, RXRa partner concentration 90 nM)
Method summary: PBM binding z-score (relative to random genomic background probes); higher = stronger binding; sequences stand for … in GC…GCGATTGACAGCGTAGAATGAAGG
Property: PBM binding z-score
Write no unit; give the number alone.

Known results for sequences:
[[record]]
polymer_sequence = "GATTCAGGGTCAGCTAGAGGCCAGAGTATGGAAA"
observed_value = 3.77

[[record]]
polymer_sequence = "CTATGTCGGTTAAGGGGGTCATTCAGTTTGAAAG"
observed_value = 5.84

[[record]]
polymer_sequence = "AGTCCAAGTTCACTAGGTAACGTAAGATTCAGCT"
observed_value = 2.45

[[record]]
polymer_sequence = "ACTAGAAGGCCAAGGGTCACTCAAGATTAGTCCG"
observed_value = 3.73


Exercise: For the sequence shown here, `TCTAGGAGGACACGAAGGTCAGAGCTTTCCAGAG` , give the reported PBM binding z-score.
Key: 1.72

Exercise: Query `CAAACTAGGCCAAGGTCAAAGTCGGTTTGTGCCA` next
Key: 4.28
